Target: T1, rat CD47 (rat, UniProt P97829 19-303)
T1 construct: whole, on cells; also called CD47 on rat RBCs
T1 sequence (looked up): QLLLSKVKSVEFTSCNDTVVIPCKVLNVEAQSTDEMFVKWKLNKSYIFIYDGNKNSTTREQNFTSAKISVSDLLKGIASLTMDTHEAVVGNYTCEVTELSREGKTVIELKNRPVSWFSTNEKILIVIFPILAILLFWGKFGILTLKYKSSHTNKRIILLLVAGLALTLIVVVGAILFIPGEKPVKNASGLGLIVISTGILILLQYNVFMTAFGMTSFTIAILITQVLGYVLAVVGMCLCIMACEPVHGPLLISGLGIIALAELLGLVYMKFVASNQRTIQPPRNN
Test: flow cytometry on RBCs, CHO supernatant 10 ng/ml
Recorded measurements of mean fluorescence relative to chimeric antibody, one per entry
value.kind: mean fluorescence relative to chimeric antibody (ratio)

- binder: "Clone 24 (pVxK7b-037-hum24-LC / pVxK7b-037-hum24-HC) (antibody, human IgG1, kappa, V domains shown, also called Cl 24) VH: QVQLQESGPGLVKPGATVKISCKVSGYTFTNYYVFWVRQARGQRLEWIGDINPVNGDTNFNEKFKNRVTITADKSTSTAYMELSSLRSEDTAVYYCARGGYTMDYWGQGTLVTVSS VL: AIQLTQSPSSLSASVGDRVTITCRSSQSLVHSNGNTYLHWYQQKPGQAPRLLIYKVSYRFSGVPSRFSGSGSGTEFTLTISSLQPDDFATYYCSQNTHVPRTFGQGTKVEIKR"
  units.text: "ratio"
  number: 1.2
- binder: "Clone 6 (pVxK7b-037-hum06-LC / pVxK7b-037-hum06-HC) (antibody, human IgG1, kappa, V domains shown) VH: QVQLQESGPGLVKPSQTLSLTCTVSGYTFTNYYVFWVRQARGQRLEWIGDINPVNGDTNFNEKFKNRLTISKDTSKNQVVLTMTNMDPVDTATYYCARGGYTMDYWGQGTLVTVSS VL: DIQMTQSPSSLSASVGDRVTITCRSSQSLVHSNGNTYLHWYLQKPGQSPQLLIYKVSYRFSGIPARFSGSGSGTEFTLTISSLQSEDFAVYYCSQNTHVPRTFGQGTKVEIKR"
  units.text: "ratio"
  number: 2.1
